System: MS2 coat protein
Assay: apparent Kd, MS2 coat protein; higher = weaker binding; RNA-MaP array; FMN 200 µM where present
Conditions: ligand present: flavin mononucleotide; designed as: OFF switch for flavin mononucleotide
Classify by apparent Kd. Ranges: lo: < 20 nM; mid: ≥ 20 nM and < 80 nM; hi: ≥ 80 nM

Sample answers from the record:
UUGAUGUGAGGAUAUGUGAUCUGCCUUCUAUAUAGAUGAUUACAGAAGGCACAUGAGGAUCACCCAUGUAGAUC :: mid
GUCGGAUGUAUAGGAUAUCGACUGGAUAACAGUCGAGAAGGAUACAUGAGGAUCACCCAUGUAAUAAUAAUAAUAAUAACCGAC :: mid
GUCAGCUCGUGAGGAUAUACAACACUGCUUCGGCAGUGUAUUAAGCUCACAUGAGGAUCACCCAUGUAGAAGGCACGAGCUGAU :: lo
ACGCAUUGCCUUUGGUAGUGCGUUACAUGAGGAUCACCCAUGUAGGAUAUGGUAGGCAAAGCUUACCAGAAGGACAUGAUAAUU :: hi
GGAUCGAGUGUGAGGAUAUGCUGGUCCUUGGAUCAGCAGAAGGCACAUGAGGAUCACCCAUGUGAAGACGGUCC :: hi

Which apparent Kd category applies to `UGUGUGAGACAGGAUAUGCCGGAUAUAUUACUGGUAGAAGGGUCUACAUGAGGAUCACCCAUGUGGCCGGCCGG` here? mid

Which apparent Kd category applies to `GUCAUGUGAGGAUAUGUAGCCACGAAAUCUUGUAGAGGCAGACAGAAGGCACAUGAGGAUCACCCAUGUGUUUU` here? hi

Which apparent Kd category applies to `GGAUUACAUGAGGAUCACCCAUGUGAGGAUAUCGAUGUCCUGUAAUUCGUGCGGGACUCGAGAAGGCACUUGGA` here? hi

---

System: MS2 coat protein
Test: apparent Kd, MS2 coat protein; higher = weaker binding; RNA-MaP array; FMN 200 µM where present
Conditions: ligand present: flavin mononucleotide; designed as: OFF switch for flavin mononucleotide
In this section we review reported apparent Kd values for a set of sequences.
Give just the numeric value; nM need not be written.

Known apparent Kd results, listed for orientation:
AAGUCGUGAGGAUAUACAUGCAUAUACAUUUAUGUAAAACUACAUGAGGAUCACCCAUGUAGAAGGCACGAAUA :: 16.1
AAGGUAUACUGAGGAUAUCCGUGGGUAUAUGGGUCUAGGAACAUGAGGAUCACCCAUGUUCCCUAGGAGAAGGCAGGACAUUAA :: 33.6
AGUCGGAGCAGAGGAUAUACAUGAGGAUCACCCAUGUAAUAAAGUGAAGCCUGGAAACAGGCAAUGUAGAAGGCUGCUCCGACA :: 232

For the next question, use this sequence.
Tell me reported apparent Kd for `AAACAUGUCCGAGGAUAUCUGGAAACAUUUUCAAGAGAAGGCGGACAUGAGGAUCACCCAUGUCUCUCCUCAUCAACUACAAAC` , tested with MS2 coat protein. 53.2

---

System: MS2 coat protein
Test: apparent Kd, MS2 coat protein; higher = weaker binding; RNA-MaP array; FMN 200 µM where present
Conditions: ligand present: flavin mononucleotide; designed as: OFF switch for flavin mononucleotide
Measured quantity: apparent Kd
Answer by giving the amount and then stating its unit.

Known apparent Kd results, listed for orientation:
CCUUCAGCGAACGAUACGAAUGGACAUGAGGAUCACCCAUGUAGAAGGACAGGAGAAUAACGACUGUAGGAUAUACAUUUAGUG :: 28.6 nM
GGUGGACAUGAGGAUCACCCAUGUGAGGAUAUCGGCUAUCUACUCGCUGACGGUUGCUCGAGAAGGCACAUUGU :: 206 nM
GGCCCGGGAGGAUAUACAUGAGGAUCACCCAUGUGCGGGCCCGGGAUCCCGGGCCCGUGUAGAAGGCCCGGGCC :: 16.5 nM
UGAUAACAUGUAGGAUAUCCAGCAUUGACCAUCGGAGAAGGACAUGAGGAUCACCCAUGUACCGAUACAAUGGAAUAAGGGAAU :: 17.9 nM
GUAGAGUAGUGAGGAUAUACGAGUACGAUAGUACGGCGAUCCAAUAAUACAUGAGGAUCACCCAUGUAGAAGGCACUUCUCUAC :: 98.7 nM

For the next question, use this sequence.
// returns reported apparent Kd for input `GUCAGCUCGUGAGGAUAUGCAACACUGCUUCGGCAGUGUAUUAAGAUCACAUGAGGAUCACCCAUGUAGAAGGCACGAGCUGAU` 34.8 nM

---

System: MS2 coat protein
Assay: apparent Kd, MS2 coat protein; higher = weaker binding; RNA-MaP array; FMN 200 µM where present
Details: designed as: ON switch for flavin mononucleotide; no ligand
Rule: apparent Kd under 40 nM gives n, otherwise y.

Sample answers from the record:
AGCGAACAGGCUAACAUGAGGAUCACCCAUGUGGACUCAUGGUAGGAUAUCGGGAAGGAGGAAACCGAGAAGGGCCGGUGAGCA :: y
UUAUUUAUGCAAGGAUAUCAAUUAUAUAGACGUCCUACAUGAGGAUCACCCAUGUUUAGUUUUUUUGAGAAGGUGCAUUGUCGG :: y
AAAAAAAAAACUCAGGAUAUAGAUCGUUGAACAUGAGGAUCACCCAUGUAGUGAAAAGCGAAAAACUAGAAGGGAGGAAAAAAAAA :: n
UUUUAAUAAUAGAAGGAGGACUUCAUGAGGAUCACCCAUGUGUUAGUACUUAGGAUAUGUAAUAACAUGAGGAUCACCCAUGUC :: y

Reported apparent Kd reaches at least 40 nM for `CGCUGCCACGCAGGAUAUGCAUUGGAUUACAAUGCAGAAGGGCGAUUACAUGAGGAUCACCCAUGUGUUGGCAGUGAAGAAGAG` ? y

Reported apparent Kd reaches at least 40 nM for `AGGUAACAUGAGGAUCACCCAUGUACCAAUAAUGCAGGAUAUCGACACGAAAAUACGUGUCGAGAAGGGCAUGAAA` ? n

Reported apparent Kd reaches at least 40 nM for `CUCGGCGCACAGAAGGAUCGGUACAUGAGGAUCACCCAUGUAAGCAAAGAUAGGAUAUGUGGAGCUUACAGGGAAAUUGAACAA` ? y

Reported apparent Kd reaches at least 40 nM for `AACGAGCAGUAGAAGGCGUGUCUACGGACAUGAGGAUCACCCAUGUUGUGACUCCGAAAGGAGCGCGAGGAUAUACUGCUCAAA` ? n

Reported apparent Kd reaches at least 40 nM for `UUGGACGUCGUAGGAUAUGUAGGAUAUUCCUACAUGAGGAUCACCCAUGUUGACAUGGAAGAAGGACAGAAGGACGAUCUCCAU` ? y

Reported apparent Kd reaches at least 40 nM for `GGUCAACAUGAGGAUCACCCAUGUAAGCCAAGGCAAGGAUAUGGGUAUAGGGUACUAGGGUUAGAAGGUGCCAAUA` ? y

Reported apparent Kd reaches at least 40 nM for `GUCAUUAAACAGAAGGUGUUGUACAUGAGGAUCACCCAUGUUUAUCUAAUUAAAUUUGUAAUUAACAAGGAUAUGUACUAAUCG` ? y

Reported apparent Kd reaches at least 40 nM for `UGGUACUAGGCAGGAUAUGGGAAGAUACAUGAGGAUCACCCAUGUUUAAGAAUGCCGAGAGGCAACUAGAAGGCCCUAGUACCU` ? y

Reported apparent Kd reaches at least 40 nM for `ACACCACAUGAGGAUCACCCAUGUAAAGCGUAGCAAGGAUAUGGGCACGGAUAAUUCCGAUCAGAAGGUGUAACGU` ? y

Reported apparent Kd reaches at least 40 nM for `CGAAGUCCGUAGAAGGGUGACAUGAGGAUCACCCAUGUGCGAGCGGAGGGAGUCAUCGGCUCGCCACAGGAUAUACGGAGCACG` ? y

---

Test system: MS2 coat protein
Assay: apparent Kd, MS2 coat protein; higher = weaker binding; RNA-MaP array
Conditions: ligand present: flavin mononucleotide; designed as: ON switch for flavin mononucleotide
Classify by apparent Kd. Ranges: lower band = under 0.01 µM, central band = from 0.01 µM up to 0.03 µM, upper band = 0.03 µM and over

Sample answers from the record:
ACAAGAGUAAAACAUACAUGAGGAUCACCCAUGUUAUCAACAAAGGAUAUCGUUGUGGUAGGGAACGAGAAGGUUGCAAAAUCA :: central band
GCUUGACAUGAGGAUCACCCAUGUAAAUGAGAGACAGGAUAUACGAGACACGUAGGGUAGGUAGAAGGGUCGACUG :: lower band
UCGGGUAAGCAGAAGGCACUAGAUUCUCUUUCAGCGAUAUAACAUGAGGAUCACCCAUGUAGAGGUGAGGAUAUGCAGAAACGC :: upper band

With those in mind, consider the next sequence.
Which apparent Kd category applies to `AGACCCUAGCAGAAGGCCCGCGACAUCCAAGAGGGAGGAUAUGCCACUAGAGCAAGCUUUGCACAUGAGGAUCACCCAUGUCCU` here? upper band
